// provenance: paper PMC5225183

system: EF1α promoter; conditions: mouse
measured parameter: LOAEL Neurons EF1α

Given the compound O=C(O)c1cccnc1 , write its reported LOAEL Neurons EF1α.
>50 µM

Given the compound Nc1ccc(S(=O)(=O)Nc2ncccn2)cc1 , write its reported LOAEL Neurons EF1α.
>50 µM

Given the compound CC(C)(C)C(=O)C(Oc1ccc(Cl)cc1)n1cncn1 (stereo not shown) , write its reported LOAEL Neurons EF1α.
50 µM

Given the compound O=C1NS(=O)(=O)c2ccccc21 , write its reported LOAEL Neurons EF1α.
>50 µM

###

Field: Number of non-cytotoxic changes. Provide a value for each of the compounds that follow.
system: ESCs and ESC-derived neurons; experiment: Dual luminescence reporter test system, all readouts in ESCs and ESC-derived neurons; settings: mouse, 48 h
Please give only the number in your answer, with no unit.

Given the compound Nc1ccc(S(=O)(=O)Nc2ncccn2)cc1 [Sulfadiazine] , write its reported Number of non-cytotoxic changes.
0

Given the compound OC[C@@H](O)[C@@H](O)[C@H](O)[C@H](O)CO [D-mannitol] , write its reported Number of non-cytotoxic changes.
0

Given the compound C[C@]12CC[C@H](O)CC1=CC[C@@H]1[C@@H]2CC[C@]2(C)C(c3cccnc3)=CC[C@@H]12 [Abiraterone] , write its reported Number of non-cytotoxic changes.
1

Given the compound N[C@@H](CC(=O)N1CCn2c(nnc2C(F)(F)F)C1)Cc1cc(F)c(F)cc1F [Sitagliptin] , write its reported Number of non-cytotoxic changes.
0

Given the compound O=C(O)c1cccnc1 [Nicotinic acid] , write its reported Number of non-cytotoxic changes.
0

Given the compound CCCCc1oc2ccccc2c1C(=O)c1cc(I)c(OCCN(CC)CC)c(I)c1 [Amiodarone] , write its reported Number of non-cytotoxic changes.
1

Given the compound O=C(/C=C/c1cccc(S(=O)(=O)Nc2ccccc2)c1)NO [Belinostat] , write its reported Number of non-cytotoxic changes.
1

Given the compound COc1cccc2c1C(=O)c1c(O)c3c(c(O)c1C2=O)C[C@@](O)(C(=O)CO)C[C@@H]3O[C@H]1C[C@H](N)[C@H](O)[C@H](C)O1 [Doxorubicin] , write its reported Number of non-cytotoxic changes.
0

Given the compound CCCc1nn(C)c2c(=O)[nH]c(-c3cc(S(=O)(=O)N4CCN(C)CC4)ccc3OCC)nc12 [Sildenafil] , write its reported Number of non-cytotoxic changes.
0

Given the compound Nc1ccccc1NC(=O)c1ccc(CNC(=O)OCc2cccnc2)cc1 [Entinostat] , write its reported Number of non-cytotoxic changes.
1

Given the compound CC(C)NCC(O)COc1cccc2ccccc12 (stereo not shown) [Propranolol] , write its reported Number of non-cytotoxic changes.
2

Given the compound CC(C1CC1)C(O)(Cn1cncn1)c1ccc(Cl)cc1 (stereo not shown) [Cyproconazole] , write its reported Number of non-cytotoxic changes.
0

Given the compound COC1=C2C[C@@H](C)C[C@H](OC)[C@H](O)[C@@H](C)/C=C(\C)[C@H](OC(N)=O)[C@@H](OC)/C=C\C=C(/C)C(=O)NC(=CC1=O)C2=O [Geldanamycin] , write its reported Number of non-cytotoxic changes.
1

Given the compound COC(=O)c1ccc2c(c1)NC(=O)/C2=C(\Nc1ccc(N(C)C(=O)CN2CCN(C)CC2)cc1)c1ccccc1 [Nintedanib] , write its reported Number of non-cytotoxic changes.
2

Given the compound CCC[C@H](NC(=O)[C@@H]1[C@H]2CCC[C@H]2CN1C(=O)[C@@H](NC(=O)[C@@H](NC(=O)c1cnccn1)C1CCCCC1)C(C)(C)C)C(=O)C(=O)NC1CC1 [Telaprevir] , write its reported Number of non-cytotoxic changes.
0

Given the compound COCCCOc1cc(C[C@@H](C[C@H](N)[C@@H](O)C[C@H](C(=O)NCC(C)(C)C(N)=O)C(C)C)C(C)C)ccc1OC [Aliskiren] , write its reported Number of non-cytotoxic changes.
0
